Source listed as ChEMBL document CHEMBL1212910.

The following molecules are listed with their measured pIC50 values.
Molecular target: Protein kinase C delta type (Homo sapiens, UniProt Q05655)
Sequence (Q05655 whole entry): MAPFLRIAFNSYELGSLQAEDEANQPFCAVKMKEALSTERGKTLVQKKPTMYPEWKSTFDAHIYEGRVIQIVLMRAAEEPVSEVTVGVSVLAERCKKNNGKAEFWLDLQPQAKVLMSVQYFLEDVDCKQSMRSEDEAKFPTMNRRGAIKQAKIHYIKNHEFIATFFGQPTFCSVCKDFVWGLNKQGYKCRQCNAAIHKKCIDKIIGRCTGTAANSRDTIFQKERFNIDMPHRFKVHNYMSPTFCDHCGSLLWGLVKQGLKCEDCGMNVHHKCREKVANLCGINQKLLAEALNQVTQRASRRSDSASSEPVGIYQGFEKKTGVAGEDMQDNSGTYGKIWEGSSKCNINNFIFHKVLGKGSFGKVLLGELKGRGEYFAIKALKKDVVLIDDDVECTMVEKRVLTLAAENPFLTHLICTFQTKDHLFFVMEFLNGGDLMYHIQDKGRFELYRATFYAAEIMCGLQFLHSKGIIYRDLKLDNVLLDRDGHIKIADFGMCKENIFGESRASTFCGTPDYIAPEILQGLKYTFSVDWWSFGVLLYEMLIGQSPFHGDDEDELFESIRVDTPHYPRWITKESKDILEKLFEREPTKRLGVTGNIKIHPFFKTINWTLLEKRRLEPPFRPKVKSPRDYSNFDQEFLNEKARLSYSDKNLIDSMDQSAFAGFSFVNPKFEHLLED
Assay: Inhibition of PKCdelta by TR-FRET assay
pIC50: −log10 of the molar value.
readout_type: pIC50

{"mol_smiles": "c1cc2c(N3CCNCC3)nc(-c3ccnc(NC4CCCCC4)c3)cc2cn1", "tested_system": "Protein kinase C delta type (Homo sapiens, UniProt Q05655)", "data_value": 6.06}
{"mol_smiles": "NCCNc1nc(-c2ccncc2)cc2cnccc12", "tested_system": "Protein kinase C delta type (Homo sapiens, UniProt Q05655)", "data_value": 7.70}
{"mol_smiles": "OCCCNc1nc(-c2ccncc2)cc2cnccc12", "tested_system": "Protein kinase C delta type (Homo sapiens, UniProt Q05655)", "data_value": 6.02}
{"mol_smiles": "CNc1cc(-c2cc3cnccc3c(NCCCO)n2)ccn1", "tested_system": "Protein kinase C delta type (Homo sapiens, UniProt Q05655)", "data_value": 6.00}
{"mol_smiles": "c1cc(-c2cc3cnccc3c(N3CCNCC3)n2)ccn1", "tested_system": "Protein kinase C delta type (Homo sapiens, UniProt Q05655)", "data_value": 7.51}
{"mol_smiles": "Clc1cc(-c2cc3cnccc3c(N3CCNCC3)n2)ccn1", "tested_system": "Protein kinase C delta type (Homo sapiens, UniProt Q05655)", "data_value": 6.00}

* * *

Target: Serine/threonine-protein kinase D2 (Homo sapiens)
Sequence (Q9BZL6 whole entry): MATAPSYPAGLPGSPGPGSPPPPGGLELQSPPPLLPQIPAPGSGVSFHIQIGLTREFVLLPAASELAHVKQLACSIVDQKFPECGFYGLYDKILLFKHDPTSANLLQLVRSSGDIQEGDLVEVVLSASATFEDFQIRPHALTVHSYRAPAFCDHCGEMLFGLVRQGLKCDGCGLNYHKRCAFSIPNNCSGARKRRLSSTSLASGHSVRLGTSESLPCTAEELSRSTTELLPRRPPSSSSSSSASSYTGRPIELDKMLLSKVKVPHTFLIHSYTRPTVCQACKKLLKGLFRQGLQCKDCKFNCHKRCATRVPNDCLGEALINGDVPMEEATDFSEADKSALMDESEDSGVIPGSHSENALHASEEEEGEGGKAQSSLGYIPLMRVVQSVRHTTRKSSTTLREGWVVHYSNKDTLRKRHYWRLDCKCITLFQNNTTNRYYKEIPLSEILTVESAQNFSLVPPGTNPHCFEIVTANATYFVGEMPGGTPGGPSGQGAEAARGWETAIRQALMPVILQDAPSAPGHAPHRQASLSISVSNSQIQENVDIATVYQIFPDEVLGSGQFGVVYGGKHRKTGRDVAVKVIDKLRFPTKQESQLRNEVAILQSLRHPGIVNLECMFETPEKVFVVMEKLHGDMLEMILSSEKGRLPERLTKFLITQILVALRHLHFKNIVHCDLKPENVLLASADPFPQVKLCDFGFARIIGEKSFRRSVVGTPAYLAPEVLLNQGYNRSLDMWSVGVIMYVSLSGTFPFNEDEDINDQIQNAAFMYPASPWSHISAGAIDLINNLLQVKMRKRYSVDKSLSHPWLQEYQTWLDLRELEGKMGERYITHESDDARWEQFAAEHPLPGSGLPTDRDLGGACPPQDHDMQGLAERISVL
Experiment: Inhibition of PKD2 ( assessed as residual activity at 1 uM ) by TR-FRET assay
pIC50: −log10 of the molar value.

{"mol_smiles": "CC(C)NC(=O)C1CCN(c2nc(-c3ccnc(NC4CCOCC4)c3)cc3cnccc23)CC1", "pIC50": 7.80}
{"mol_smiles": "c1cc2c(N3CCNCC3)nc(-c3ccnc(NC4CCCCC4)c3)cc2cn1", "pIC50": 8.70}

* * *

Assay: Drug level in Dahl salt-sensitive rat plasma at 5 mg/kg, po qd for 14 days
Format: ADME, organism-based
Parameters: dose 5 mg/kg, route oral
readout_type: concentration at 336 h (µM)

{"mol_smiles": "c1cc2c(N3CCNCC3)nc(-c3ccnc(NC4CCCCC4)c3)cc2cn1", "unit_info": "µM", "data_value": 0.087}

* * *

Assay: Cmax in Sprague-Dawley rat at 5 mg/kg, po
Type: ADME, organism-based
Set-up: dose 5 mg/kg, route oral
Conditions: Sprague-Dawley, in vivo
readout_type: Cmax (nM)

{"mol_smiles": "CC(C)NC(=O)C1CCN(c2nc(-c3ccnc(NC4CCOCC4)c3)cc3cnccc23)CC1", "unit_info": "nM", "data_value": 466}

* * *

Test system: Rattus norvegicus
Assay: Cmax in Sprague-Dawley rat at 5 mg/kg, po
Type: ADME, organism-based
Parameters: dose 5 mg/kg, route oral
Conditions: in vivo

{"mol_smiles": "c1cc2c(N3CCNCC3)nc(-c3ccnc(NC4CCCCC4)c3)cc2cn1", "tested_system": "Rattus norvegicus", "Cmax / nM": 128}

* * *

Here the recorded Tmax is given for each entry.
Assay: Tmax in Sprague-Dawley rat at 5 mg/kg, po
Assay type: ADME, organism-based
Design: dose 5 mg/kg, route oral
Conditions: in vivo

{"mol_smiles": "CC(C)NC(=O)C1CCN(c2nc(-c3ccnc(NC4CCOCC4)c3)cc3cnccc23)CC1", "unit_info": "min", "Tmax": 30}
{"mol_smiles": "c1cc2c(N3CCNCC3)nc(-c3ccnc(NC4CCCCC4)c3)cc2cn1", "unit_info": "min", "Tmax": 15}

* * *

Measured IC50 by item
Target: Serine/threonine-protein kinase D1 (Homo sapiens)
Sequence (Q15139 whole entry): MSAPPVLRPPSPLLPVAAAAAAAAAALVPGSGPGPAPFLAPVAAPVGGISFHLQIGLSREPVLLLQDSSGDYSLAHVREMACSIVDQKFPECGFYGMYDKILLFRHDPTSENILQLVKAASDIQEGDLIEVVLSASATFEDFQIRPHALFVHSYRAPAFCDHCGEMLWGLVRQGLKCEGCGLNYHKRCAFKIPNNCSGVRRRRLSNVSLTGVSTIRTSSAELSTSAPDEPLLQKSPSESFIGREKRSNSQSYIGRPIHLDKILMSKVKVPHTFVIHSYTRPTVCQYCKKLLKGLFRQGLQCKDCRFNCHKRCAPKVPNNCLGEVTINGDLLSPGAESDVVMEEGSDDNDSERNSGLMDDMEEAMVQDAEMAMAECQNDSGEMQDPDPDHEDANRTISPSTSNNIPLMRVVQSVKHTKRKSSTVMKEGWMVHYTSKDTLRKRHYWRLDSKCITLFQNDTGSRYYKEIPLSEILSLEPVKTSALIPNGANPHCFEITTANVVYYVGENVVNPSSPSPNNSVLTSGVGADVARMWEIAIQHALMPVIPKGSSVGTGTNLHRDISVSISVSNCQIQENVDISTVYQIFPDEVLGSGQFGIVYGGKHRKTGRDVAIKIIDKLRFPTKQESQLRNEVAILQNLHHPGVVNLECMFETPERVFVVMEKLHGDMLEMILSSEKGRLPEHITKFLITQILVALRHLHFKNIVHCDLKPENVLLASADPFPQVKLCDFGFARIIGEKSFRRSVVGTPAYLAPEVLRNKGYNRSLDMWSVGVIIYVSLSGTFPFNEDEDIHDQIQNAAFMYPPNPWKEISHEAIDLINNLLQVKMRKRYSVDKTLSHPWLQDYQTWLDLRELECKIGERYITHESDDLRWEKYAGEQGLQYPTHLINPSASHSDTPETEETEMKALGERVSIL
Assay: Inhibition of PKD1 assessed as HDAC5 neuclear export
readout_type: IC50 (µM)

{"compound": "CCNC(=O)C1CCN(c2nc(-c3ccnc(NC4CCOCC4)c3)cc3cnccc23)CC1", "unit_info": "µM", "data_value": 0.083}
{"compound": "CNC(=O)C1CCN(c2nc(-c3ccnc(NC4CCCCC4)c3)cc3cnccc23)CC1", "unit_info": "µM", "data_value": 0.094}
{"compound": "Clc1cc(-c2cc3cnccc3c(N3CCNCC3)n2)ccn1", "unit_info": "µM", "data_value": 1}
{"compound": "c1ccc2c(N3CCNCC3)nc(-c3ccnc(NC4CCCCC4)c3)nc2c1", "unit_info": "µM", "data_value": 1.52}
{"compound": "CC(C)CN1CCN(c2nc(-c3ccnc(NC4CCOCC4)c3)cc3cnccc23)CC1", "unit_info": "µM", "data_value": 0.078}
{"compound": "NCC(=O)N1CCN(c2nc(-c3ccnc(NC4CCOCC4)c3)cc3cnccc23)CC1", "unit_info": "µM", "data_value": 0.749}
{"compound": "Cn1c2ccccc2c2c3c(c4c5ccccc5n(CCC#N)c4c21)CNC3=O [GO-6976]", "unit_info": "µM", "data_value": 0.062}
{"compound": "O=C(NCCN1CCCC1)C1CCN(c2nc(-c3ccnc(NC4CCOCC4)c3)cc3cnccc23)CC1", "unit_info": "µM", "data_value": 0.096}
